# Tested on: FXR:RXRa (NR concentration 270 nM, RXRa partner concentration 90 nM)
# assay_overview: PBM binding z-score (relative to random genomic background probes); higher = stronger binding; sequences stand for … in GC…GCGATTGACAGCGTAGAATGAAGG
Would you please tag the item y when its PBM binding z-score is 0.5 or above, and n when it is below?

item_sequence: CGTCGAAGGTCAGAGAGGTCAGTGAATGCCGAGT
assigned_label: y

item_sequence: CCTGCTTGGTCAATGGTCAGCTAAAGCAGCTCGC
assigned_label: n

item_sequence: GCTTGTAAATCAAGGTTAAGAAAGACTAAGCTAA
assigned_label: y

item_sequence: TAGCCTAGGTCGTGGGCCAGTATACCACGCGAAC
assigned_label: n

item_sequence: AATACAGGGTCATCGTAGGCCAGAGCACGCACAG
assigned_label: y

item_sequence: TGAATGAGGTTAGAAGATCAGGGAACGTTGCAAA
assigned_label: n

item_sequence: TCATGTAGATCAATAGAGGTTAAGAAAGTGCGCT
assigned_label: y

item_sequence: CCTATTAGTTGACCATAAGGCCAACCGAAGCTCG
assigned_label: y

item_sequence: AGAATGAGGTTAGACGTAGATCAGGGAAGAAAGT
assigned_label: y

item_sequence: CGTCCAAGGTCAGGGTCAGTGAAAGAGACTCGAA
assigned_label: y

item_sequence: ATCTCTAGGTTAGACTCAGTTCAGTGAAGAACGC
assigned_label: y

item_sequence: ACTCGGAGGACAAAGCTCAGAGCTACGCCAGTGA
assigned_label: n

item_sequence: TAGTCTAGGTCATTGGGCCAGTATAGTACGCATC
assigned_label: y

item_sequence: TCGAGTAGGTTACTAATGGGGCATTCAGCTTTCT
assigned_label: n

item_sequence: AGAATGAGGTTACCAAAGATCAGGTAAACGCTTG
assigned_label: y

item_sequence: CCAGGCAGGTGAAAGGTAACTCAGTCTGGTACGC
assigned_label: n

item_sequence: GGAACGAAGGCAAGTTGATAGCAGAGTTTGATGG
assigned_label: n

item_sequence: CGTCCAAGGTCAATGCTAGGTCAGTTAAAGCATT
assigned_label: y

item_sequence: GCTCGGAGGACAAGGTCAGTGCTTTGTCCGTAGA
assigned_label: y

item_sequence: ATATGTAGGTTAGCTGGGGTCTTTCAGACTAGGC
assigned_label: y

item_sequence: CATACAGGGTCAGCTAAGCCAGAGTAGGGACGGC
assigned_label: y

item_sequence: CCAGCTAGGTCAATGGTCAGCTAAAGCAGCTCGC
assigned_label: y

item_sequence: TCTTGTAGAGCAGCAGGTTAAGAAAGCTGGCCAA
assigned_label: n

item_sequence: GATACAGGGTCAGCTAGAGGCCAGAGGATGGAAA
assigned_label: y

item_sequence: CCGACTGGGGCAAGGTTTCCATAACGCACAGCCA
assigned_label: n

item_sequence: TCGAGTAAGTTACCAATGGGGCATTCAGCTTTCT
assigned_label: n

item_sequence: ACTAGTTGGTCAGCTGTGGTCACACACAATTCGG
assigned_label: n

item_sequence: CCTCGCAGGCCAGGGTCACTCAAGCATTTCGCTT
assigned_label: y

item_sequence: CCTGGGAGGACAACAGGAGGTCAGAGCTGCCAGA
assigned_label: y

item_sequence: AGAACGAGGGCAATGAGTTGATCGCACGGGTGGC
assigned_label: n

item_sequence: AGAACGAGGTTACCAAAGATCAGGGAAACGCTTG
assigned_label: y

item_sequence: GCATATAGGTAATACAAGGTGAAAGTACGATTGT
assigned_label: y

item_sequence: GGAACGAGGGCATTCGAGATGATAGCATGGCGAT
assigned_label: y

item_sequence: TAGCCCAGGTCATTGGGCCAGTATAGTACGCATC
assigned_label: y

item_sequence: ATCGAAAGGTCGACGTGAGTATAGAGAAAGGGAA
assigned_label: y

item_sequence: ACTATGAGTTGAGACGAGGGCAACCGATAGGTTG
assigned_label: y

item_sequence: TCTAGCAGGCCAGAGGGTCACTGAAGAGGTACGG
assigned_label: y

item_sequence: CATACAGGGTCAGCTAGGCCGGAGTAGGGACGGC
assigned_label: y

item_sequence: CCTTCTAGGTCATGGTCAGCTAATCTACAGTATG
assigned_label: y

item_sequence: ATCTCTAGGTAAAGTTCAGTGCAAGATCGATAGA
assigned_label: y

item_sequence: CCGACTGGGGCATAAGGTTACAATAAGCCAGCCC
assigned_label: n

item_sequence: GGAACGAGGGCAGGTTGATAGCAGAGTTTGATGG
assigned_label: n

item_sequence: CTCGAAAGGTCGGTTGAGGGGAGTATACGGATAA
assigned_label: y

item_sequence: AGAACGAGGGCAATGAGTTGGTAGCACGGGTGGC
assigned_label: n

item_sequence: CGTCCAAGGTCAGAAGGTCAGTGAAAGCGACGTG
assigned_label: y

item_sequence: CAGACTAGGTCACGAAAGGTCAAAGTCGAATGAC
assigned_label: y

item_sequence: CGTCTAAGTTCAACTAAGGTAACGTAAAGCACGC
assigned_label: y

item_sequence: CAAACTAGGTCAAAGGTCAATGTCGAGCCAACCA
assigned_label: y

item_sequence: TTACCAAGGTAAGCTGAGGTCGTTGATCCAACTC
assigned_label: n

item_sequence: ACAGACAGGCGATGAAGGTAACTCAGGCTATCAT
assigned_label: n
